# Tested on: Staphylococcus sp.
# experiment_summary: in vitro antibacterial evaluation, MIC by broth dilution
# Type: cell-based
# reported_conditions: broth dilution, 18 hours at 35° C.; strain GC 4545
# Description: Methods for in vitro Antibacterial Evaluation (Table 1) […]
Known MIC Staphylococcus aureus (GC 4545) of a selection of molecules

Worked set:
| molecule | MIC Staphylococcus aureus (GC 4545) |
| --- | --- |
| CC(C)C(=O)OCC1OC(OC2C(CO)OC(Oc3ccc(CC4NC(=O)C(Cc5ccccc5)NC(=O)CNC(=O)C(CO)NC(=O)C(C(O)C5CNC(=N)N5C5OC(CO)C(O)C(O)C5O)NC(=O)C(C(O)C5CNC(=N)N5)NC4=O)cc3)C(O)C2O)C(O)C(O)C1O (stereo not shown) [Example 283a] | 64 µg/mL |
| CC(c1ccccc1)C1NC(=O)CNC(=O)C(CO)NC(=O)C(CC2CNC(=N)N2C2OC(CO)C(O)C(O)C2O)NC(=O)C(CC2CNC(=N)N2)NC(=O)C(Cc2ccc(OC3OC(CO)C(OC4OC(COCc5ccc(OCc6ccccc6)cc5)C(O)C(O)C4O)C(O)C3O)cc2)NC1=O (stereo not shown) [Example 246] | 4 µg/mL |
| CCOc1cc(C2OCC3OC(OC4C(CO)OC(Oc5ccc(CC6NC(=O)C(C(C)c7ccccc7)NC(=O)CNC(=O)C(CO)NC(=O)C(C(O)C7CNC(=N)N7C7OC(CO)C(O)C(O)C7O)NC(=O)C(C(O)C7CNC(=N)N7)NC6=O)cc5)C(O)C4O)C(O)C(O)C3O2)ccc1[N+](=O)[O-] (stereo not shown) [Example 167] | 16 µg/mL |

Shift focus to the following entry.
Form field: reported MIC Staphylococcus aureus (GC 4545) of CC(c1ccccc1)C1NC(=O)CNC(=O)C(CO)NC(=O)C(C(O)C2CNC(=N)N2C2OC(CO)C(O)C(O)C2O)NC(=O)C(C(O)C2CNC(=N)N2)NC(=O)C(Cc2ccc(OC3OC(CO)C(OC4OC5COC(C67CC8CC(CC(C8)C6)C7)OC5C(O)C4O)C(O)C3O)cc2)NC1=O (stereo not shown) [Example 127]
2 µg/mL

----------
# Tested on: Staphylococcus sp.
# experiment_summary: in vitro antibacterial evaluation, MIC by broth dilution
# Format: cell-based
# reported_conditions: broth dilution, 18 hours at 35° C.
MIC Staphylococcus aureus (GC 3051): recorded values
Report as a plain number; the unit µg/mL is understood.

Here is how some compounds turned out for MIC Staphylococcus aureus (GC 3051).
| compound | reading_unit | MIC Staphylococcus aureus (GC 3051) |
| --- | --- | --- |
| Cc1ccc(CC2OCC3OC(OC4C(CO)OC(Oc5ccc(CC6NC(=O)C(C(C)c7ccccc7)NC(=O)CNC(=O)C(CO)NC(=O)C(C(O)C7CNC(=N)N7C7OC(CO)C(O)C(O)C7O)NC(=O)C(C(O)C7CNC(=N)N7)NC6=O)cc5)C(O)C4O)C(O)C(O)C3O2)cc1 (stereo not shown) [Example 119] | µg/mL | 1 |
| CC(c1ccccc1)C1NC(=O)CNC(=O)C(CO)NC(=O)C(C(O)C2CNC(=N)N2C2OC(CO)C(O)C(O)C2O)NC(=O)C(C(O)C2CNC(=N)N2)NC(=O)C(Cc2ccc(OC3OC(CO)C(OC4OC5COC(c6ccsc6)OC5C(O)C4O)C(O)C3O)cc2)NC1=O (stereo not shown) [Example 133] | µg/mL | 1 |

I would be grateful if you could share the reported MIC Staphylococcus aureus (GC 3051) for CC(C)=CCCC(C)CC1OCC2OC(OC3C(CO)OC(Oc4ccc(CC5NC(=O)C(C(C)c6ccccc6)NC(=O)CNC(=O)C(CO)NC(=O)C(C(O)C6CNC(=N)N6C6OC(CO)C(O)C(O)C6O)NC(=O)C(C(O)C6CNC(=N)N6)NC5=O)cc4)C(O)C3O)C(O)C(O)C2O1 (stereo not shown) [Example 126] .
8

----------
# Tested on: Enterococcus sp.
# experiment_summary: in vitro antibacterial evaluation, MIC by broth dilution
# Format: cell-based
# reported_conditions: broth dilution, 18 hours at 35° C.; strain GC 4556
recorded_metric: MIC Enterococcus faecium (GC 4556)

# annotated cases, reported MIC Enterococcus faecium (GC 4556) shown
| compound | tested_target | MIC Enterococcus faecium (GC 4556) |
| --- | --- | --- |
| CC(c1ccccc1)C1NC(=O)CNC(=O)C(CO)NC(=O)C(C(O)C2CNC(=N)N2C2OC(CO)C(O)C(O)C2O)NC(=O)C(C(O)C2CNC(=N)N2)NC(=O)C(Cc2ccc(OC3OC(CO)C(OC4OC5COC(Cc6ccc(Br)cc6)OC5C(O)C4O)C(O)C3O)cc2)NC1=O (stereo not shown) | Enterococcus sp. | <0.5 to 1 µg/mL |
| CCOc1cc(COCC2OC(OC3C(CO)OC(Oc4ccc(CC5NC(=O)C(C(C)c6ccccc6)NC(=O)CNC(=O)C(CO)NC(=O)C(C(O)C6CNC(=N)N6C6OC(CO)C(O)C(O)C6O)NC(=O)C(C(O)C6CNC(=N)N6)NC5=O)cc4)C(O)C3O)C(O)C(O)C2O)ccc1OC (stereo not shown) | Enterococcus sp. | 32 µg/mL |
| N=C1NCC(C(O)C2NC(=O)C(Cc3ccc(OC4OC(CO)C(OC5OC(CO)C(O)C6OC7(OC56)C5CC6CC(C5)CC7C6)C(O)C4O)cc3)NC(=O)C(CC3CCCCC3)NC(=O)CNC(=O)C(CO)NC(=O)C(C(O)C3CNC(=N)N3C3OC(CO)C(O)C(O)C3O)NC2=O)N1 (stereo not shown) [Example 106a] | Enterococcus sp. | 8 µg/mL |

Any idea what MIC Enterococcus faecium (GC 4556) was measured for CC(c1ccccc1)C1NC(=O)CNC(=O)C(CO)NC(=O)C(C(O)C2CNC(=N)N2C2OC(CO)C(O)C(O)C2O)NC(=O)C(C(O)C2CNC(=N)N2)NC(=O)C(Cc2ccc(OC3OC(CO)C(OC4OC(COC(=O)OCc5ccccc5)C(O)C(O)C4O)C(O)C3O)cc2)NC1=O (stereo not shown) [Example 101a] ?
16 µg/mL

Likewise for CC(c1ccccc1)C1NC(=O)CNC(=O)C(CO)NC(=O)C(C(O)C2CNC(=N)N2C2OC(CO)C(O)C(O)C2O)NC(=O)C(C(O)C2CNC(=N)N2)NC(=O)C(Cc2ccc(OC3OC(CO)C(OC4OC5COC(C6CC=CCC6)OC5C(O)C4O)C(O)C3O)cc2)NC1=O (stereo not shown) ?
2 µg/mL

Try the compound CCCCOC(=O)CCC1OCC2OC(OC3C(CO)OC(Oc4ccc(CC5NC(=O)C(C(C)c6ccccc6)NC(=O)CNC(=O)C(CO)NC(=O)C(C(O)C6CNC(=N)N6C6OC(CO)C(O)C(O)C6O)NC(=O)C(C(O)C6CNC(=N)N6)NC5=O)cc4)C(O)C3O)C(O)C(O)C2O1 (stereo not shown)
4 µg/mL

Do the same for CC=C(C)C(=O)OC1C(CO)OC(OC2C(CO)OC(Oc3ccc(CC4NC(=O)C(C(C)c5ccccc5)NC(=O)CNC(=O)C(CO)NC(=O)C(C(O)C5CNC(=N)N5C5OC(CO)C(O)C(O)C5O)NC(=O)C(C(O)C5CNC(=N)N5)NC4=O)cc3)C(O)C2O)C(O)C1O (stereo not shown) [Example 278b] please
32 µg/mL

----------
# System: Enterococcus sp.
# experiment_summary: in vitro antibacterial evaluation, MIC by broth dilution
# Assay type: cell-based
# reported_conditions: strain GC 4553; broth dilution, 18 hours at 35° C.
recorded_metric: MIC Enterococcus faecalis (GC 4553) (µg/mL)
Give the value in µg/mL but do not write µg/mL after it.

Give Enterococcus sp. MIC Enterococcus faecalis (GC 4553) for CC(c1ccccc1)C1NC(=O)CNC(=O)C(CO)NC(=O)C(C(O)C2CNC(=N)N2C2OC(CO)C(O)C(O)C2O)NC(=O)C(C(O)C2CNC(=N)N2)NC(=O)C(Cc2ccc(OC3OC(CO)C(OC4OC5COC(c6ccc7ccccc7c6)OC5C(O)C4O)C(O)C3O)cc2)NC1=O (centres unmarked)
2

----------
# System: Streptococcus sp.
# experiment_summary: in vitro antibacterial evaluation, MIC by broth dilution
# Format: cell-based
# reported_conditions: Streptococcus pneumoniae (ATCC 6301); broth dilution, 18 hours at 35° C.
Measured MIC Streptococcus pneumoniae (ATCC 6301), listed per entry.
Please give a number only; it is taken to be in µg/mL.

Field: example entries. Status: answers known.
| compound | tested_target | reading_unit | numeric_result |
| --- | --- | --- | --- |
| N=C1NCC(C(O)C2NC(=O)C(Cc3ccc(OC4OC(CO)C(OC5OC(CO)C(O)C6OC7(OC56)C5CC6CC(C5)CC7C6)C(O)C4O)cc3)NC(=O)C(CC3CCCCC3)NC(=O)CNC(=O)C(CO)NC(=O)C(C(O)C3CNC(=N)N3C3OC(CO)C(O)C(O)C3O)NC2=O)N1 (centres unmarked) [Example 106a] | Streptococcus sp. | µg/mL | 0.12 |
| N=C1NCC(C(O)C2NC(=O)C(Cc3ccc(OC4OC(CO)C(OC5OC6COC7(OC6C6OC8(OC56)C5CC6CC(C5)CC8C6)C5CC6CC(C5)CC7C6)C(O)C4O)cc3)NC(=O)C(CC3CCCCC3)NC(=O)CNC(=O)C(CO)NC(=O)C(C(O)C3CNC(=N)N3C3OC(CO)C(O)C(O)C3O)NC2=O)N1 (centres unmarked) [Example 106b] | Streptococcus sp. | µg/mL | 0.5 |

Suppose we examine the compound COc1cccc(C2OCC3OC(OC4C(CO)OC(Oc5ccc(CC6NC(=O)C(C(C)c7ccccc7)NC(=O)CNC(=O)C(CO)NC(=O)C(C(O)C7CNC(=N)N7C7OC(CO)C(O)C(O)C7O)NC(=O)C(C(O)C7CNC(=N)N7)NC6=O)cc5)C(O)C4O)C(O)C(O)C3O2)c1 (centres unmarked) ; what MIC Streptococcus pneumoniae (ATCC 6301) value has been reported?
0.12

How about CC(c1ccccc1)C1NC(=O)CNC(=O)C(CO)NC(=O)C(C(O)C2CNC(=N)N2C2OC(CO)C(O)C(O)C2O)NC(=O)C(C(O)C2CNC(=N)N2)NC(=O)C(Cc2ccc(OC3OC(CO)C(OC4OC5COC(c6cccc(O)c6)OC5C(O)C4O)C(O)C3O)cc2)NC1=O (centres unmarked) ?
2
